# credit: patent US20170320848A1

Tested on: Haemonchus contortus
testMethodNotes: Haemonchus contortus assay (HAEMCO), larval mortality
Type: cell-based
testParameters: Haemonchus contortus, 120 h; application rate 20 ppm, after 5 days; read-out: activity (percentage of larval mortality)
parameterMeasured: mortality at 20 ppm

Quick check: mortality at 20 ppm of O=C(NCC(F)(F)c1ccc(-c2ccc(F)cc2)cc1C(F)(F)F)c1ccccc1C(F)(F)F [Example 12] ? 100%

Quick check: mortality at 20 ppm of CSc1ccc(-c2ccc(C(F)(F)CNC(=O)c3ccccc3C(F)(F)F)c(Cl)c2)cc1 [Example 26] ? 100%

Quick check: mortality at 20 ppm of O=C(NCC(F)(F)c1ccc(-c2ccc(C(F)(F)F)c(F)c2)cc1Cl)c1ccccc1C(F)(F)F [Example 22] ? 90%

Quick check: mortality at 20 ppm of O=C(NCC(F)(F)c1ccc(-c2ccc(F)cc2)cc1Cl)c1ccccc1C(F)(F)F [Example 3] ? 100%

Quick check: mortality at 20 ppm of Cc1cc(-c2ccc(F)cc2)ccc1C(F)(F)CNC(=O)c1ccccc1C(F)(F)F [Example 38] ? 100%

Quick check: mortality at 20 ppm of O=C(NCC(F)(F)c1ccc(-c2ccc(F)cc2)cc1F)c1cccnc1C(F)(F)F [Example 19] ? 100%

Quick check: mortality at 20 ppm of N#Cc1ccc(-c2ccc(C(F)(F)CNC(=O)c3ccccc3C(F)(F)F)c(Cl)c2)cc1F [Example 25] ? 100%

Quick check: mortality at 20 ppm of O=C(NCC(F)(F)c1ccc(-c2ccc(Cl)cc2)cc1C(F)(F)F)c1cccnc1C(F)(F)F [Example 18] ? 100%

---

Kindly supply the reported activity (percentage of larval mortality) values for the records listed here.
Test system: Cooperia curticei
testMethodNotes: Cooperia curticei assay (COOPCU), larval mortality
Type: cell-based
testParameters: application rate 20 ppm, after 5 days
Experimental: Cooperia Curticei—Assay (COOPCU) Solvent: dimethyl sulfoxide To produce a suitable preparation, 10 mg of active compound are dissolved in 0.5 ml solvent, and the concentrate is diluted with “Ringer's solution” to the desired concentration. Approximately 40 nematode larvae (Cooperia curticei) are transferred into a test tube containing the compound solution. After 5 days percentage of larval mortality is recorded. 100% efficacy means all larvae are killed; 0% efficacy means no larvae are killed.

Quick check: activity (percentage of larval mortality) of COc1cc(-c2ccc(C#N)cc2)ccc1C(F)(F)CNC(=O)c1ccccc1C(F)(F)F ? 90%

Quick check: activity (percentage of larval mortality) of COc1cc(-c2ccc(C(F)(F)F)cc2)ccc1C(F)(F)CNC(=O)c1ccccc1C(F)(F)F ? 90%

Quick check: activity (percentage of larval mortality) of COc1cc(-c2ccc(C(F)F)cc2)ccc1C(F)(F)CNC(=O)c1ccccc1C(F)(F)F ? 80%

Quick check: activity (percentage of larval mortality) of N#Cc1cc(-c2cccc(C(F)F)c2)ccc1C(F)(F)CNC(=O)c1ccccc1C(F)(F)F ? 80%

Quick check: activity (percentage of larval mortality) of O=C(NCC(F)(F)c1ccc(-c2ccc(N3CCCC3)cc2)cc1Cl)c1ccccc1C(F)(F)F ? 90%

Quick check: activity (percentage of larval mortality) of N#Cc1cc(-c2ccc(F)cc2)ccc1C(F)(F)CNC(=O)c1ccccc1C(F)(F)F ? 90%

---

testMethodNotes: Measurement of LogP values by HPLC on reversed phase columns (EEC directive 79/831 Annex V.A8)
Assay type: physicochemical
testParameters: acidic range, 0.1% formic acid in water and acetonitrile as eluent
Kindly supply the reported logP (HCOOH)[a] values for the records listed here.
Please respond with just the number, no unit label.

Quick check: logP (HCOOH)[a] of CC(=O)N1CCN(c2ccc(-c3ccc(C(F)(F)CNC(=O)c4ccccc4C(F)(F)F)c(Cl)c3)cc2)CC1 ? 3.17

Quick check: logP (HCOOH)[a] of O=C(NCC(F)(F)c1ccc(-c2ccc(N3CCOCC3)cc2)cc1Cl)c1ccccc1C(F)(F)F ? 3.83

Quick check: logP (HCOOH)[a] of O=C(NCC(F)(F)c1ccc(-c2ccc3c(c2)OC(F)(F)O3)cc1Cl)c1ccccc1C(F)(F)F ? 4.57

Quick check: logP (HCOOH)[a] of O=C(NCC(F)(F)c1ccc(-c2ccc(F)c(Cl)c2)cc1Cl)c1ccccc1C(F)(F)F ? 4.57

Quick check: logP (HCOOH)[a] of O=C(NCC(F)(F)c1ccc(-c2ccc(F)cc2)cc1Cl)c1ccccc1Cl ? 4.0

Quick check: logP (HCOOH)[a] of O=C(NCC(F)(F)c1ccc(-c2ccc(F)cc2)cc1Cl)c1ncccc1C(F)(F)F ? 4.05

Quick check: logP (HCOOH)[a] of N#Cc1cc(-c2ccc(F)cc2)ccc1C(F)(F)CNC(=O)c1ccccc1C(F)(F)F ? 3.63

Quick check: logP (HCOOH)[a] of N#Cc1cc(-c2ccc(C(F)(F)CNC(=O)c3ccccc3C(F)(F)F)c(Cl)c2)ccc1Cl ? 4.07

Quick check: logP (HCOOH)[a] of O=C(NCC(F)(F)c1ccc(-c2ccc(F)cc2)cc1Cl)c1ccccc1I ? 4.17

Quick check: logP (HCOOH)[a] of Cc1cc(-c2ccc(Cl)c(F)c2)ccc1C(F)(F)CNC(=O)c1ccccc1C(F)(F)F ? 4.61

Quick check: logP (HCOOH)[a] of O=C(NCC(F)(F)c1ccc(-c2cc(F)c(Cl)c(F)c2)cc1Cl)c1ccccc1C(F)(F)F ? 4.77

Quick check: logP (HCOOH)[a] of O=C(NCC(F)(F)c1ccc(-c2cc(F)c(F)c(F)c2)cc1Cl)c1nccnc1C(F)(F)F ? 4.05

Quick check: logP (HCOOH)[a] of N#Cc1ccc(-c2ccc(C(F)(F)CNC(=O)c3ccccc3C(F)(F)F)c(Cl)c2)c(F)c1 ? 3.76

Quick check: logP (HCOOH)[a] of Cc1cc(-c2ccc(F)c(Cl)c2)ccc1C(F)(F)CNC(=O)c1ccccc1C(F)(F)F ? 4.56

Quick check: logP (HCOOH)[a] of O=C(NCC(F)(F)c1ccc(-c2cccc(OC(F)F)c2)cc1Cl)c1ccccc1C(F)(F)F ? 4.08

Quick check: logP (HCOOH)[a] of N#Cc1cc(-c2cc(F)c(F)c(F)c2)ccc1C(F)(F)CNC(=O)c1ccccc1C(F)(F)F ? 3.89

Quick check: logP (HCOOH)[a] of COc1cc(-c2ccc(OC(F)(F)F)cc2)ccc1C(F)(F)CNC(=O)c1ccccc1C(F)(F)F ? 4.42

Quick check: logP (HCOOH)[a] of COc1cc(-c2ccc(C(F)F)cc2)ccc1C(F)(F)CNC(=O)c1ccccc1C(F)(F)F ? 3.81

Quick check: logP (HCOOH)[a] of N#Cc1ccc(-c2ccc(C(F)(F)CNC(=O)c3ccccc3C(F)(F)F)c(Cl)c2)cc1C(F)(F)F ? 4.12

Quick check: logP (HCOOH)[a] of COc1cc(-c2ccc(C(F)(F)F)cc2)ccc1C(F)(F)CNC(=O)c1ccccc1C(F)(F)F ? 4.33

Quick check: logP (HCOOH)[a] of Cc1cc(-c2cccc(Cl)c2)ccc1C(F)(F)CNC(=O)c1ccccc1C(F)(F)F ? 4.56

Quick check: logP (HCOOH)[a] of Cc1cc(-c2ccc(OC(F)(F)F)cc2)ccc1C(F)(F)CNC(=O)c1ccccc1C(F)(F)F ? 4.68

Quick check: logP (HCOOH)[a] of O=C(NCC(F)(F)c1ccc(-c2ccc(F)cc2)cc1Cl)c1nccnc1C(F)(F)F ? 3.85

Quick check: logP (HCOOH)[a] of O=C(NCC(F)(F)c1ccc(-c2cccc(OC(F)(F)F)c2)cc1Cl)c1ccccc1C(F)(F)F ? 4.61

Quick check: logP (HCOOH)[a] of COc1cc(-c2cccc(C(F)F)c2)ccc1C(F)(F)CNC(=O)c1ccccc1C(F)(F)F ? 3.81

Quick check: logP (HCOOH)[a] of Cc1cc(-c2ccc(Cl)c(Cl)c2)ccc1C(F)(F)CNC(=O)c1ccccc1C(F)(F)F ? 4.98

Quick check: logP (HCOOH)[a] of O=C(NCC(F)(F)c1c(F)cc(-c2ccc(C(F)F)cc2)cc1F)c1ccccc1C(F)(F)F ? 3.9

Quick check: logP (HCOOH)[a] of O=C(NCC(F)(F)c1ccc(-c2ccc(N3CCOCC3)c(F)c2)cc1Cl)c1ccccc1C(F)(F)F ? 4.05

Quick check: logP (HCOOH)[a] of Cc1cc(-c2ccc(SC(F)(F)F)cc2)ccc1C(F)(F)CNC(=O)c1ccccc1C(F)(F)F ? 5.08

Quick check: logP (HCOOH)[a] of N#Cc1ccc(-c2cc(F)c(C(F)(F)CNC(=O)c3ccccc3C(F)(F)F)c(F)c2)cc1 ? 3.53

Quick check: logP (HCOOH)[a] of Cc1cc(-c2ccc(F)cc2F)ccc1C(F)(F)CNC(=O)c1ccccc1C(F)(F)F ? 4.15

---

testMethodNotes: Measurement of LogP values by HPLC on reversed phase columns (EEC directive 79/831 Annex V.A8)
Type: physicochemical
testParameters: reversed phase HPLC columns, acidic range, 0.1% formic acid in water and acetonitrile as eluent, read-out: logP (HCOOH)[a]
parameterMeasured: chromatographic logP
Please respond with just the number, no unit label.

Quick check: chromatographic logP of CC(=O)Nc1ccc(-c2ccc(C(F)(F)CNC(=O)c3ccccc3C(F)(F)F)c(Cl)c2)cc1 ? 2.93

Quick check: chromatographic logP of O=C(NCC(F)(F)c1c(F)cc(-c2ccc(F)cc2)cc1F)c1ccccc1C(F)(F)F ? 3.95

Quick check: chromatographic logP of CNc1ccc(-c2ccc(C(F)(F)CNC(=O)c3ccccc3C(F)(F)F)c(Cl)c2)cc1 ? 3.59

Quick check: chromatographic logP of CS(=O)(=O)c1ccc(-c2ccc(C(F)(F)CNC(=O)c3ccccc3C(F)(F)F)c(Cl)c2)cc1 ? 2.99

Quick check: chromatographic logP of O=C(NCC(F)(F)c1ccc(-c2ccc(Cl)cc2)cc1Cl)c1cccnc1C(F)(F)F ? 4.14

Quick check: chromatographic logP of NCC(F)(F)c1ccc(-c2ccc(F)cc2)cc1Cl ? 1.35

Quick check: chromatographic logP of O=C(NCC(F)(F)c1ccc(-c2c(F)cccc2F)cc1Cl)c1ccccc1C(F)(F)F ? 3.99

Quick check: chromatographic logP of O=C(NCC(F)(F)c1ccc(-c2ccc(F)cc2)cc1Cl)c1cccnc1C(F)(F)F ? 3.68
